# ASSAY: Metabolic (microsomal) stability assay, human liver microsomes (HLM)
# Type: in vitro ADME
# REPORTED CONDITIONS: predicted clearance as percent of liver blood flow, 1 μM
MEASUREMENT KIND: HLM QH (%)
API: value field is a number in %; no unit string.

## Input Report HLM QH for C[C@H](O)Cn1ncc(-c2cc(O[C@@H](C)[C@@H]3CCCN3C)nc(-c3noc4c3CCC[C@@]43CCCc4sc(N)c(C#N)c43)n2)n1 please.
## Output 34

## Input Report HLM QH for C[C@H](Oc1cc(N2CCOC2=O)nc(-c2noc3c2CCC[C@@]32CCCc3sc(N)c(C#N)c32)n1)[C@@H]1CCCN1C please.
## Output 57

## Input Report HLM QH for C[C@H](Oc1cc(-n2ccc(C(=O)N[C@H]3CCOC3)n2)nc(-c2noc3c2CCC[C@@]32CCCc3sc(N)c(C#N)c32)n1)[C@@H]1CCCN1C please.
## Output 31

## Input Report HLM QH for CO[C@H]1CCN(C)[C@@H]1[C@H](C)Oc1cc(-n2ccc(C(=O)N[C@@H](C)c3ccccn3)n2)nc(-c2noc3c2CCC[C@@]32CCCc3sc(N)c(C#N)c32)n1 please.
## Output 75

## Input Report HLM QH for C[C@H](Oc1cc(-n2cc(Cn3cncn3)nn2)nc(-c2noc3c2CCC[C@@]32CCCc3sc(N)c(C#N)c32)n1)[C@@H]1CCCN1C please.
## Output 37

## Input Report HLM QH for C[C@H](Oc1cc(-c2ccn(C)n2)nc(-c2noc3c2CCC[C@@]32CCCc3sc(N)c(C#N)c32)n1)[C@@H]1C[C@H](F)CN1C please.
## Output 75

----------
# TESTED ON: KRAS (WT)::SOS1 (Homo sapiens (Human), UniProt P01116, C118S)
# Sequence (P01116 other isoform, or with tags, fused parts or gaps C118S): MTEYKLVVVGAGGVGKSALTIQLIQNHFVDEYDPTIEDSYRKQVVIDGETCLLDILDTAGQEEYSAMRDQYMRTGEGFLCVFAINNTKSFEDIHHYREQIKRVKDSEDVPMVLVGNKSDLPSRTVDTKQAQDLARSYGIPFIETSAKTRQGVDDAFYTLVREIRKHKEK
# ASSAY: KRAS::SOS1 AlphaScreen binding assay, KRAS WT
# Method: This assay can be used to examine the potency with which compounds according to the invention binding to (mutated) KRAS inhibit the protein-protein interaction between SOS1 and (mutated) KRAS e.g., KRAS WT, KRAS G12C, KRAS G12D, KRAS G12V, KRAS G13D. […] Plates are kept at room temperature in a darkened incubator. After an additional 60 minutes incubation time the signal is measured in a PerkinElmer Envision HTS Multilabel Reader using the AlphaScreen specs from PerkinElmer. […]
pIC50: −log10 of the molar value.
Classification field: enter t for pIC50 values not below 8, f for values below it.

## Input Please tell me: is the molecule C[C@H](Oc1cc(-n2ccc(C(=O)NC3(C)COC3)n2)nc(-c2noc3c2CCC[C@@]32CCCc3sc(N)c(C#N)c32)n1)[C@@H]1CCCN1C at or over 8 in terms of pIC50?
## Output t

## Input Please tell me: is the molecule C[C@H](Oc1cc([C@@H]2CCOC2)nc(-c2noc3c2CCC[C@@]32CCCc3sc(N)c(C#N)c32)n1)[C@@H]1CCCN1C at or over 8 in terms of pIC50?
## Output t

## Input Please tell me: is the molecule C[C@H](Oc1cc(N2CCN(C)C3(CC3)C2)nc(-c2onc3c2CCC[C@@]32CCCc3sc(N)c(C#N)c32)n1)[C@@H]1CCCN1C at or over 8 in terms of pIC50?
## Output t

## Input Please tell me: is the molecule C[C@H](Oc1cc(N2CC[C@H](N(C)C)C2)nc(-c2noc3c2CCC[C@@]32CCCc3sc(N)c(C#N)c32)n1)[C@@H]1CCCN1C at or over 8 in terms of pIC50?
## Output f

## Input Please tell me: is the molecule C[C@H](Oc1cc(-c2cnsc2)nc(-c2noc3c2CCC[C@@]32CCCc3sc(N)c(C#N)c32)n1)[C@@H]1CCCN1C at or over 8 in terms of pIC50?
## Output t

## Input Please tell me: is the molecule C[C@H](Oc1cc(-c2cnn(C)n2)nc(-c2noc3c2CCC[C@@]32CCCc3sc(N)c(C#N)c32)n1)[C@@H]1CCCN1C at or over 8 in terms of pIC50?
## Output t

## Input Please tell me: is the molecule C[C@H](Oc1cc(N2CCN(C)C3(COC3)C2)nc(-c2noc3c2CCC[C@@]32CCCc3sc(N)c(C#N)c32)n1)[C@@H]1C[C@@H](F)CN1C at or over 8 in terms of pIC50?
## Output t

## Input Please tell me: is the molecule CNC(=O)c1ccn(-c2cc(O[C@@H](C)[C@@H]3CCCN3C)nc(-c3noc4c3CCC[C@@]43CCCc4sc(N)c(C#N)c43)n2)n1 at or over 8 in terms of pIC50?
## Output t

## Input Please tell me: is the molecule C[C@H](Oc1cc(-c2ccccn2)nc(-c2noc3c2CCC[C@@]32CCCc3sc(N)c(C#N)c32)n1)[C@@H]1CCCN1C at or over 8 in terms of pIC50?
## Output t

## Input Please tell me: is the molecule Cc1ccc(-c2cc(O[C@@H](C)[C@@H]3CCCN3C)nc(-c3onc4c3CCC[C@@]43CCCc4sc(N)c(C#N)c43)n2)cn1 at or over 8 in terms of pIC50?
## Output f

## Input Please tell me: is the molecule C[C@H](Oc1nc(-c2noc3c2CCC[C@@]32CCCc3sc(N)c(C#N)c32)cc(N2C[C@H](C)N[C@@H](C)C2)n1)[C@@H]1CCCN1C at or over 8 in terms of pIC50?
## Output f

## Input Please tell me: is the molecule C[C@@H]1CN(c2cc(O[C@@H](C)[C@@H]3C[C@@H](F)CN3C)nc(-c3noc4c3CCC[C@@]43CCCc4sc(N)c(C#N)c43)n2)CC2(CC2)N1 at or over 8 in terms of pIC50?
## Output t

## Input Please tell me: is the molecule C[C@H](Oc1cc(N2CCNC3(COC3)C2)nc(-c2onc3c2CCC[C@@]32CCCc3sc(N)c(C#N)c32)n1)[C@@H]1CCCN1C at or over 8 in terms of pIC50?
## Output t

## Input Please tell me: is the molecule C[C@H](Oc1cc(-n2ccc(C(=O)N[C@@H]3CCOC3)n2)nc(-c2noc3c2CCC[C@@]32CCCc3sc(N)c(C#N)c32)n1)[C@@H]1CCCN1C at or over 8 in terms of pIC50?
## Output t

## Input Please tell me: is the molecule C[C@H](Oc1cc(-n2ccc(C(N)=O)n2)nc(-c2noc3c2CCC[C@@]32CCCc3sc(N)c(C#N)c32)n1)[C@@H]1CCCN1C at or over 8 in terms of pIC50?
## Output t

----------
Hi there, I'd appreciate the recorded IC50 for every entry that follows.
# TESTED ON: KRAS (G12D)::SOS1 (Homo sapiens (Human), UniProt P01116, G12D)
# Sequence (P01116 other isoform, or with tags, fused parts or gaps G12D): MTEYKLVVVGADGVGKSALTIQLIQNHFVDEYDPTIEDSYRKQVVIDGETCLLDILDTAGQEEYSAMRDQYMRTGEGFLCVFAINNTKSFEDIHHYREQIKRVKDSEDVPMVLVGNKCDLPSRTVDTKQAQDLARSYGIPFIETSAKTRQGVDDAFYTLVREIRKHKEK
# ASSAY: KRAS::SOS1 AlphaScreen binding assay, KRAS G12D

## Input Report IC50 for Cc1nc(-c2cc(O[C@@H](C)[C@@H]3CCCN3C)nc(-c3noc4c3CCC[C@@]43CCCc4sc(N)c(C#N)c43)n2)cs1 please.
## Output 2 nM

## Input Report IC50 for C[C@H](Oc1cc(-n2cc3c(n2)CNC3)nc(-c2noc3c2CCC[C@@]32CCCc3sc(N)c(C#N)c32)n1)[C@@H]1C[C@@H](F)CN1C please.
## Output 1 nM

## Input Report IC50 for C[C@H](Oc1cc(N2C[C@@H]3[C@@H](N)[C@@H]3C2)nc(-c2noc3c2CCC[C@@]32CCCc3sc(N)c(C#N)c32)n1)[C@@H]1CCCN1C please.
## Output 2 nM

## Input Report IC50 for C[C@H](Oc1cc(N2CCN(C)C3(CCOC3)C2)nc(-c2noc3c2CCC[C@@]32CCCc3sc(N)c(C#N)c32)n1)[C@@H]1C[C@@H](F)CN1C (stereo partly drawn) please.
## Output 2 nM

## Input Report IC50 for C[C@H](Oc1cc(N2CC[C@H](N3CCCCC3)C2)nc(-c2noc3c2CCC[C@@]32CCCc3sc(N)c(C#N)c32)n1)[C@@H]1CCCN1C please.
## Output 1 nM

## Input Report IC50 for CNC(=O)c1cn(-c2cc(O[C@@H](C)[C@@H]3CCCN3C)nc(-c3noc4c3CCC[C@@]43CCCc4sc(N)c(C#N)c43)n2)nn1 please.
## Output 4 nM

----------
# ASSAY: Solubility measurement (DMSO solution method), McIlvaine buffer pH 4.5 or 6.8
# Type: physicochemical
# REPORTED CONDITIONS: aqueous buffer, kinetic from dmso stock; McIlvaine buffer pH 6.8; DMSO stock diluted to 250 μM; 24 h shaking at ambient temperature; read-out: solubility pH 6.8
Hi there, I'd appreciate the recorded solubility at 24 h for every entry that follows.

## Input Report solubility at 24 h for CC(=O)N1CC=C(c2cc(O[C@@H](C)[C@@H]3CCCN3C)nc(-c3noc4c3CCC[C@@]43CCCc4sc(N)c(C#N)c43)n2)CC1 please.
## Output 84 µg/mL

## Input Report solubility at 24 h for CO[C@H]1CCN(C)[C@@H]1[C@H](C)Oc1cc(N2CCNC3(CC3)C2)nc(-c2noc3c2CCC[C@@]32CCCc3sc(N)c(C#N)c32)n1 please.
## Output > 147 µg/mL

## Input Report solubility at 24 h for CCN1CCN(c2cc(O[C@@H](C)[C@@H]3C[C@@H](F)CN3C)nc(-c3noc4c3CCC[C@@]43CCCc4sc(N)c(C#N)c43)n2)CC12CC2 please.
## Output 8 µg/mL

## Input Report solubility at 24 h for C[C@H](Oc1cc(N2CCNC[C@@]23CCOC3)nc(-c2noc3c2CCC[C@@]32CCCc3sc(N)c(C#N)c32)n1)[C@@H]1CCCN1C please.
## Output > 133 µg/mL

## Input Report solubility at 24 h for CO[C@@H]1C[C@@H]([C@H](C)Oc2cc(N3CCN(C)C4(COC4)C3)nc(-c3noc4c3CCC[C@@]43CCCc4sc(N)c(C#N)c43)n2)N(C)C1 please.
## Output 103 µg/mL

## Input Report solubility at 24 h for C[C@H](Oc1cc(-n2ccc(-c3ccccn3)n2)nc(-c2noc3c2CCC[C@@]32CCCc3sc(N)c(C#N)c32)n1)[C@@H]1CCCN1C please.
## Output < 1 µg/mL

## Input Report solubility at 24 h for C[C@H](Oc1cc(N2CC[C@H](N3CCCCC3)C2)nc(-c2noc3c2CCC[C@@]32CCCc3sc(N)c(C#N)c32)n1)[C@@H]1CCCN1C please.
## Output > 137 µg/mL

## Input Report solubility at 24 h for C[C@H](Oc1nc(-c2noc3c2CCC[C@@]32CCCc3sc(N)c(C#N)c32)nc(N2CCNC3(CC3)C2)c1F)[C@@H]1C[C@@H](F)CN1C please.
## Output 3 µg/mL

## Input Report solubility at 24 h for C[C@H](Oc1cc(N2CCNCC23CCOC3)nc(-c2onc3c2CCC[C@@]32CCCc3sc(N)c(C#N)c32)n1)[C@@H]1CCCN1C (stereo partly drawn) please.
## Output > 136 µg/mL

## Input Report solubility at 24 h for CO[C@H]1CCN(C)[C@@H]1[C@H](C)Oc1cc(-n2ccc(C(=O)N[C@H]3CCOC3)n2)nc(-c2onc3c2CCC[C@@]32CCCc3sc(N)c(C#N)c32)n1 please.
## Output < 1 µg/mL

## Input Report solubility at 24 h for C[C@H](Oc1cc(-n2cncc3ccnc2-3)nc(-c2noc3c2CCC[C@@]32CCCc3sc(N)c(C#N)c32)n1)[C@@H]1CCCN1C please.
## Output < 1 µg/mL

## Input Report solubility at 24 h for C[C@H](Oc1cc([C@@H]2CCOC2)nc(-c2noc3c2CCC[C@@]32CCCc3sc(N)c(C#N)c32)n1)[C@@H]1CCCN1C please.
## Output > 122 µg/mL
